# System: Hantaan (HTNV) (strain 76–118)
# Test Summary: microbe, parasite or virus in culture
# Assay type: cell-based, Hantaan virus
# Run Conditions: Orthohantavirus hantanense, Vero C1008, 168 h, read-out: HTNV EC50
Readout Label: EC50

- CCCNC(=O)Nc1ccc(-n2nc3cc(Cl)c(Cl)cc3n2)cc1: ≤ 5 µM
- O=C(Nc1ccc(-n2nc3cc(Cl)c(Cl)cc3n2)cc1)c1ccc([N+](=O)[O-])cc1: > 30 µM
- CCCNC(=O)Nc1ccc(-n2nc3cc(C)c(C)cc3n2)cc1: > 30 µM
- CCCC(=O)N(C(=O)CCC)c1ccc(-n2nc3cc(Cl)c(Cl)cc3n2)cc1: > 30 µM
- O=C(Nc1ccc(-n2nnc3cc(Cl)c(Cl)cc32)cc1)c1ccc([N+](=O)[O-])cc1: 21 µM
- COc1ccc(C(=O)Nc2ccc(-n3nc4cc(Cl)c(Cl)cc4n3)cc2)cc1: > 30 µM
- Nc1ccc(-n2nc3cc(Cl)c(Cl)cc3n2)cc1: > 30 µM
- CCNC(=O)Nc1ccc(-n2nc3cc(Cl)c(Cl)cc3n2)cc1: 26 µM
- O=C(Nc1ccc(-n2nc3cc(Cl)c(Cl)cc3n2)cc1)NC1CCCCC1: ≤ 5 µM
- CCNC(=O)Nc1ccc(-n2nc3cc(C)c(C)cc3n2)cc1: > 30 µM
- O=C(Nc1ccc(-n2nnc3cc(Cl)c(Cl)cc32)cc1)c1ccc(Cl)cc1: ≥ 30 µM
- Cc1ccc(C(=O)Nc2ccc(-n3nc4ccccc4n3)cc2)cc1: > 30 µM

====

# Test Summary: in vitro
# Run Conditions: African green monkey
Consider the following compounds and their measured CC50 readings.
Readout Label: CC50

• CC(=O)Nc1ccc(-n2nc3cc(Cl)c(Cl)cc3n2)cc1 = > 30 µM
• CCCNC(=O)Nc1ccc(-n2nc3ccccc3n2)cc1 = > 30 µM
• CCCCNC(=O)Nc1ccc(-n2nc3cc(Cl)c(Cl)cc3n2)cc1 = > 30 µM

====

# Test Summary: in vitro
# Run Conditions: African green monkey
Consider the following compounds and their measured CC50 readings.
Readout Label: CC50

* CCC(=O)Nc1ccc(-n2nc3cc(Cl)c(Cl)cc3n2)cc1 | > 30 µM
* COc1ccc(C(=O)Nc2ccc(-n3nnc4cc(Cl)c(Cl)cc43)cc2)cc1 | > 30 µM
* COc1cc(C(=O)Nc2ccc(-n3nc4cc(Cl)c(Cl)cc4n3)cc2)cc(OC)c1OC | > 30 µM

====

Consider the following molecules and their measured CC50 readings.
# Test Summary: in vitro
# Run Conditions: Cercopithecus aethiops (monkey)
Readout Label: CC50

- Cc1ccc(C(=O)Nc2ccc(-n3nc4ccccc4n3)cc2)cc1 [3f]: > 100 µM
- CCC(=O)N(C(=O)CC)c1ccc(-n2nc3cc(Cl)c(Cl)cc3n2)cc1 [2d]: ≥ 100 µM
- CCCCNC(=O)Nc1ccc(-n2nc3ccccc3n2)cc1 [3m]: > 100 µM

====

# Test Summary: in vitro
# Run Conditions: Cercopithecus aethiops (monkey)
Consider the following molecules and their measured CC50 readings.
Readout Label: CC50

- CCCC(=O)N(C(=O)CCC)c1ccc(-n2nc3cc(Cl)c(Cl)cc3n2)cc1 [2e]: ≥ 100 µM
- CCCNC(=O)Nc1ccc(-n2nc3ccccc3n2)cc1 [3l]: > 100 µM
- O=C(Nc1ccc(-n2nnc3cc(Cl)c(Cl)cc32)cc1)c1ccc(Cl)cc1 [1g]: ≥ 100 µM
- CCCCNC(=O)Nc1ccc(-n2nc3cc(C)c(C)cc3n2)cc1 [4m]: > 100 µM

====

# Test Summary: in vitro
# Run Conditions: Mesocricetus auratus (hamster)
Readout Label: CC50

• CCCCNC(=O)Nc1ccc(-n2nc3cc(C)c(C)cc3n2)cc1 = > 100 µM
• O=C(Nc1ccc(-n2nc3cc(Cl)c(Cl)cc3n2)cc1)c1ccc([N+](=O)[O-])cc1 = > 100 µM
• COc1cc(C(=O)Nc2ccc(-n3nc4ccccc4n3)cc2)cc(OC)c1OC = > 100 µM
• Cc1ccc(C(=O)Nc2ccc(-n3nnc4cc(Cl)c(Cl)cc43)cc2)cc1 = ≥ 100 µM
• O=C(Nc1ccc(-n2nc3ccccc3n2)cc1)NC1CCCCC1 = > 100 µM
• CCCNC(=O)Nc1ccc(-n2nc3ccccc3n2)cc1 = > 100 µM
• CCCNC(=O)Nc1ccc(-n2nc3cc(Cl)c(Cl)cc3n2)cc1 = 40 µM
• CCC(=O)Nc1ccc(-n2nnc3cc(Cl)c(Cl)cc32)cc1 = 54 µM
